# pIC50 listing for each entry below
# measured.on: UniProt P11309
# Sequence (P11309 whole entry): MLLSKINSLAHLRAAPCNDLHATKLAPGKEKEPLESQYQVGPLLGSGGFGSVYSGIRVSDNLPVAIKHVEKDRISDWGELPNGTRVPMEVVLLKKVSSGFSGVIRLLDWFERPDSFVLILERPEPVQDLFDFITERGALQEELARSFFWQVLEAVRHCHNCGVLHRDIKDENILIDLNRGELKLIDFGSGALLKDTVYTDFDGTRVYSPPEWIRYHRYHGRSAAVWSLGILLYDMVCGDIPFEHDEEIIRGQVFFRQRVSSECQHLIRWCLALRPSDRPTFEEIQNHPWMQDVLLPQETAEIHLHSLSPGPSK
# assay.info: Pim1 ATP depletion assay
# Type: biochemical
# assay.context: 20 μM ATP, 40 μM BAD peptide, 2.5 nM PIM1
// scale note: pIC50 = -log10(conc_M); give the bare number

Example compounds with recorded pIC50:
What the record says about C[C@@H]1CN(c2ccncc2NC(=O)c2csc(-c3c(F)cccc3F)n2)C[C@@H](N)[C@H]1O : pIC50 is 8.05

What the record says about N[C@@H]1CN(c2ccncc2NC(=O)c2csc(-c3c(F)cccc3F)n2)CC[C@@H]1O : pIC50 is 9.00

What the record says about CC1(C)C[C@H](N)C[C@H](c2ccncc2NC(=O)c2csc(-c3c(F)cccc3F)n2)C1 : pIC50 is 9.00

***
What the record says about N[C@H]1C[C@H](F)CN(c2ccncc2NC(=O)c2csc(-c3c(F)cccc3F)n2)C1 : pIC50 is 8.40

What the record says about C[C@@H]1C[C@H](O)C[C@H](c2ccncc2NC(=O)c2nc(-c3c(F)cccc3F)sc2N)C1 : pIC50 is 9.00

What the record says about N[C@@H]1C[C@@H](C(F)(F)F)CN(c2ccncc2NC(=O)c2csc(-c3c(F)cccc3F)n2)C1 : pIC50 is 8.22

What the record says about CC1CCN(c2ccncc2NC(=O)c2csc(-c3c(F)cccc3F)n2)CC1N (centres unmarked) : pIC50 is 9.00

What the record says about N[C@H]1CCCN(c2ccncc2NC(=O)c2csc(C3CCCCC3)n2)C1 : pIC50 is 7.24

What the record says about C[C@H]1C[C@@H](c2ccncc2NC(=O)c2csc(-c3c(F)cccc3F)n2)C[C@@H](N)[C@H]1O : pIC50 is 8.30

What the record says about Nc1sc(-c2c(F)cccc2F)nc1C(=O)Nc1cnccc1[C@@H]1CC[C@H](O)[C@H](N)C1 (stereo in doubt) : pIC50 is 9.00

What the record says about NC1CC(CO)CN(c2ccncc2NC(=O)c2csc(-c3c(F)cccc3F)n2)C1 (centres unmarked) : pIC50 is 7.85

What the record says about Nc1sc(-c2c(F)cccc2F)nc1C(=O)Nc1cnccc1[C@@H]1CCC[C@H](N)C1 : pIC50 is 9.00

What the record says about CO[C@H]1C[C@H](N)CN(c2ccncc2NC(=O)c2csc(-c3c(F)cccc3F)n2)C1 : pIC50 is 6.89

What the record says about CCO[C@@H]1C[C@H](N)CN(c2ccncc2NC(=O)c2csc(-c3c(F)cccc3F)n2)C1 : pIC50 is 7.25
